Measured values drawn from PubChem BioAssay (Tox21) for this set.

- procedure text: qHTS assay to identify small molecule agonists of the hypoxia (HIF-1) signaling pathway - cell viability counter screen (AID 1224844); note: nearly all actives have a fitted effect of over 50% in size
- run parameters: HRE-bla ME-180 viability, CellTiter-Glo luminescence, 17 h; series mostly up to 76.8 µM
Results filed as inconclusive are left out. The source made the active and inactive calls. Calls come from the whole dose curve.
readout label: outcome

Previously resolved entries follow.
{"columns": ["molecule", "outcome"],
 "data": [
  ["O=[N+]([O-])c1ccc(F)c(Cl)c1", "inactive"],
  ["CC(=O)[C@H]1CC[C@H]2[C@@H]3CCC4=CC(=O)CC[C@]4(C)[C@H]3CC[C@]12C", "inactive"],
  ["CCOc1ccc2ccccc2c1C(=O)N[C@@H]1C(=O)N2[C@@H]1SC(C)(C)[C@@H]2C(=O)O", "inactive"],
  ["S=C([S-])NCCNC(=S)[S-].S=C([S-])NCCNC(=S)[S-].[Mn+2].[Zn+2]", "inactive"]
]}

Exercise: Give me measured outcome, please, for this molecule: Cc1cc(-n2nc3ccc(Cl)cc3n2)c(O)c(C(C)(C)C)c1
Solution: inactive

Exercise: Give me measured outcome, please, for this molecule: CCCCCCCCCCCCCCCC[N+](C)(C)CC
Solution: inactive

Exercise: Give me measured outcome, please, for this molecule: O=C(O)c1ccc2cc(C(=O)O)ccc2c1
Solution: inactive

Exercise: Give me measured outcome, please, for this molecule: CC(C(=O)O)c1ccc2c(c1)[nH]c1ccc(Cl)cc12 (configuration not stated)
Solution: inactive

Exercise: Give me measured outcome, please, for this molecule: Cc1c(C)c([N+](=O)[O-])c(C(C)(C)C)c([N+](=O)[O-])c1C
Solution: inactive

Exercise: Give me measured outcome, please, for this molecule: CCC(=O)C(=O)CC
Solution: inactive

Exercise: Give me measured outcome, please, for this molecule: CCCC1CCC(=O)CC1
Solution: inactive

Exercise: Give me measured outcome, please, for this molecule: CCCCOC(=O)CC
Solution: inactive

====

- procedure text: qHTS assay to identify small molecule antagonists of the thyroid receptor (TR) signaling pathway - cell viability counter screen (AID 743064); note: nearly all actives have a fitted effect of over 50% in size; note: potency is the fitted concentration of half-maximal effect
- run parameters: GH3.TRE-Luc viability, CellTiter-Fluor, 24 h; series mostly up to 70.3 µM
Results filed as inconclusive are left out. Activity calls are given as the source filed them. Calls come from the whole dose curve; as a rule, active = well fitted cell-killing curve with a large enough effect in the repeat runs; inconclusive = weak or mixed curves, or effect the other way; inactive = no such curve, though single readings can be large or run the other way.
readout label: Potency

{"columns": ["compound", "Potency"],
 "data": [
  ["CC(=O)[C@H]1CC[C@H]2[C@@H]3CCC4=CC(=O)CC[C@]4(C)[C@H]3CC[C@]12C", "60.8 µM (active)"],
  ["CC(N=C(NC#N)Nc1ccncc1)C(C)(C)C (configuration not stated)", "inactive"],
  ["Clc1sc(Cl)c(Cl)c1Cl", "inactive"],
  ["CCN1C(=O)c2ccccc2C1Nc1ccc(OCCN2CCCCC2)cc1 (configuration not stated)", "inactive"],
  ["CN(C)Cc1ccccc1O", "inactive"],
  ["COc1c(C)c2c(c(O)c1C/C=C(\\C)CCC(=O)OCCN1CCOCC1)C(=O)OC2", "1.68 µM (active)"],
  ["CCCCCCC1CCCC(=O)O1 (configuration not stated)", "inactive"],
  ["C=C(C)c1cccc(C(=C)C)c1", "inactive"],
  ["O=c1[nH]c2ccccc2n1CCCN1CCN(C(c2ccccc2)c2ccccc2)CC1", "23.7 µM (active)"],
  ["Cc1cc(-c2ccc(N=Nc3cc(S(=O)(=O)O)c4ccccc4c3N)c(C)c2)ccc1N=Nc1cc(S(=O)(=O)O)c2ccccc2c1N", "61.4 µM (active)"]
]}

Exercise: Give me measured Potency, please, for this compound: CCCCCc1ccc(Cl)cc1
Solution: inactive

Exercise: Give me measured Potency, please, for this compound: [Cu+]
Solution: inactive

====

- procedure text: qHTS assay to identify small molecule antagonists of the progesterone receptor (PR) signaling pathway - cell viability counter screen (AID 1346798); note: nearly all actives have a fitted effect of over 50% in size
- run parameters: PR-UAS-bla HEK293T viability, CellTiter-Glo luminescence, 16 h; series mostly up to 92.4 µM
Results filed as inconclusive are left out. Activity calls are given as the source filed them. Calls come from the whole dose curve; as a rule, active = well fitted cell-killing curve with a large enough effect in the repeat runs; inconclusive = weak or mixed curves, or effect the other way; inactive = no such curve, though single readings can be large or run the other way.
Give your call using only these classes: active, inactive

Previously resolved entries follow.
{"columns": ["compound", "assigned class"],
 "data": [
  ["O=C(/C=C/c1ccccc1)OC/C=C/c1ccccc1", "inactive"],
  ["O=C1NC(=O)[C@@H]2CC=CC[C@H]12", "active"],
  ["COC(=O)c1ccccc1OC", "inactive"]
]}

Exercise: Would you mind telling me which call this test gave COc1cc(C)ccc1O ?
Solution: inactive

Exercise: Would you mind telling me which call this test gave CN1CCN2c3ccccc3Cc3ccccc3C2C1 (centres undefined) ?
Solution: inactive

Exercise: Would you mind telling me which call this test gave CCC(=O)C(=O)CC ?
Solution: inactive

Exercise: Would you mind telling me which call this test gave C#Cc1ccc(-c2ccccc2F)cc1 ?
Solution: inactive

Exercise: Would you mind telling me which call this test gave Nc1nc(N)nc(-c2cc(Cl)ccc2Cl)n1 ?
Solution: inactive

Exercise: Would you mind telling me which call this test gave O=C1c2ccccc2C(=O)N1SC1CCCCC1 ?
Solution: inactive

Exercise: Would you mind telling me which call this test gave CC(C)CCCCCOC(=O)CCS ?
Solution: inactive

Exercise: Would you mind telling me which call this test gave CCOC(=O)NNc1ccc(N(CC)CC(C)O)nn1 (centres undefined) ?
Solution: inactive

Exercise: Would you mind telling me which call this test gave CCCCOC(=O)CC ?
Solution: inactive

Exercise: Would you mind telling me which call this test gave OC1CCCc2ccccc21 (centres undefined) ?
Solution: inactive

Exercise: Would you mind telling me which call this test gave c1ccsc1 ?
Solution: inactive

====

- procedure text: qHTS assay to identify small molecule antagonists of the estrogen receptor alpha (ER-alpha) signaling pathway using the BG1 cell line in the presence of 0.1 nM 17-beta-estradiol - cell viability counter screen (AID 1259241); note: nearly all actives have a fitted effect of over 40% in size
- run parameters: VM7Luc4E2 (BG1) viability, CellTiter-Fluor protease, 22 h, 0.1 nM estradiol agonist added; series mostly up to 92.4 µM
Results filed as inconclusive are left out. Activity calls are given as the source filed them. Calls follow the shape of the dose curve; as a rule, active = well fitted cell-killing curve with a large enough effect in the repeat runs; inconclusive = weak or mixed curves, or effect the other way; inactive = flat fitted curve, though single readings scatter.
Give your call using only these classes: TRUE for active, FALSE for inactive

Previously resolved entries follow.
{"columns": ["molecule", "assigned class"],
 "data": [
  ["CCCCNS(=O)(=O)c1ccc(C)cc1", "FALSE"],
  ["COc1cc(S(=O)(=O)O)c(C)cc1N=Nc1c(O)ccc2cc(S(=O)(=O)O)ccc12", "TRUE"],
  ["CC(C)=CCNc1ncnc2c1ncn2[C@@H]1O[C@H](CO)[C@@H](O)[C@H]1O", "FALSE"],
  ["CNC(=O)c1ccccc1Sc1ccc2c(/C=C/c3ccccn3)n[nH]c2c1", "FALSE"],
  ["COC(=O)Nc1nc2ccc(C(=O)c3ccccc3)cc2[nH]1", "FALSE"]
]}

Attention now shifts to the item below.
Exercise: Would you mind telling me which call this test gave O=[N+]([O-])c1cccc(C(F)(F)F)c1 ?
Solution: FALSE

====

- procedure text: qHTS assay to identify small molecule agonists of the estrogen receptor alpha (ER-alpha) signaling pathway in the presence of an antagonist - cell viability counter screen (AID 1259386);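 note: cells exposed to compounds for 22 h at 37 °C before the viability read; nearly all actives have a fitted effect of over 30% in size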
- run parameters: VM7Luc4E2 viability, CellTiter-Fluor fluorescence, 22 h; series mostly up to 92.4 µM
Inconclusive results are not listed. Active and inactive are the calls of the source. Calls follow the shape of the dose curve; as a rule, active = well fitted cell-killing curve with a large enough effect in the repeat runs; inconclusive = weak or mixed curves, or effect the other way; inactive = no such curve, though single readings can be large or run the other way.
Give your call using only these classes: yes (1) = active, no (0) = inactive

{"columns": ["compound", "assigned class"],
 "data": [
  ["CCCCCCCCCCCCOC(=O)c1ccc(O)cc1", "no (0)"],
  ["O=C(O)c1cc(-c2ccc(F)cc2F)ccc1O", "no (0)"],
  ["OC12N=C(c3ccccc3)SC1Cc1cc(Cl)ccc12 (configuration not stated)", "no (0)"],
  ["CC(=O)OCC=C(C)C", "no (0)"],
  ["COc1ccc2c(c1)c(CC(=O)OC/C=C(\\C)CC/C=C(\\C)CCC=C(C)C)c(C)n2C(=O)c1ccc(Cl)cc1", "no (0)"]
]}

Exercise: Would you mind telling me which call this test gave Clc1ccnc(Cl)n1 ?
Solution: no (0)

Exercise: Would you mind telling me which call this test gave Cc1ccc(-c2ccccc2)cc1 ?
Solution: no (0)

====

- procedure text: A CellTox Green Cytotoxicity Assay to monitor cytotoxicity in HEK293 cells - 8 hour (AID 1224884); note: nearly all actives have a fitted effect of over 35% in size
- run parameters: CellTox Green fluorescence; series mostly up to 76.8 µM
Records with an inconclusive call do not appear. Activity calls are given as the source filed them. Calls come from the whole dose curve; as a rule, active = well fitted activation curve with a large enough effect in the repeat runs; inconclusive = weak or mixed curves; inactive = flat fitted curve, though single readings scatter.

{"columns": ["test smiles", "outcome"],
 "data": [
  ["O=C1NC(=O)[C@@H]2CC=CC[C@H]12", "inactive"],
  ["CC1(C)[C@@H](O)CC[C@]2(C)[C@H]3C(=O)C=C4[C@@H]5C[C@@](C)(C(=O)O)CC[C@]5(C)CC[C@@]4(C)[C@]3(C)CC[C@@H]12", "inactive"],
  ["Nc1ccc(Oc2ccc(Cl)cc2)cc1", "inactive"]
]}
